Would you mind telling me the reported pIC50 of each entry?
Target: T1, alphaEbeta7 on alphaEbeta7-transfected 293 cells (human, UniProt P38570 19-1179; P26010 20-798)
T1 construct: whole, on cells; also called alphaEbeta7 293 cells
T1 sequence (P38570 19-1179, chain 1 of 2): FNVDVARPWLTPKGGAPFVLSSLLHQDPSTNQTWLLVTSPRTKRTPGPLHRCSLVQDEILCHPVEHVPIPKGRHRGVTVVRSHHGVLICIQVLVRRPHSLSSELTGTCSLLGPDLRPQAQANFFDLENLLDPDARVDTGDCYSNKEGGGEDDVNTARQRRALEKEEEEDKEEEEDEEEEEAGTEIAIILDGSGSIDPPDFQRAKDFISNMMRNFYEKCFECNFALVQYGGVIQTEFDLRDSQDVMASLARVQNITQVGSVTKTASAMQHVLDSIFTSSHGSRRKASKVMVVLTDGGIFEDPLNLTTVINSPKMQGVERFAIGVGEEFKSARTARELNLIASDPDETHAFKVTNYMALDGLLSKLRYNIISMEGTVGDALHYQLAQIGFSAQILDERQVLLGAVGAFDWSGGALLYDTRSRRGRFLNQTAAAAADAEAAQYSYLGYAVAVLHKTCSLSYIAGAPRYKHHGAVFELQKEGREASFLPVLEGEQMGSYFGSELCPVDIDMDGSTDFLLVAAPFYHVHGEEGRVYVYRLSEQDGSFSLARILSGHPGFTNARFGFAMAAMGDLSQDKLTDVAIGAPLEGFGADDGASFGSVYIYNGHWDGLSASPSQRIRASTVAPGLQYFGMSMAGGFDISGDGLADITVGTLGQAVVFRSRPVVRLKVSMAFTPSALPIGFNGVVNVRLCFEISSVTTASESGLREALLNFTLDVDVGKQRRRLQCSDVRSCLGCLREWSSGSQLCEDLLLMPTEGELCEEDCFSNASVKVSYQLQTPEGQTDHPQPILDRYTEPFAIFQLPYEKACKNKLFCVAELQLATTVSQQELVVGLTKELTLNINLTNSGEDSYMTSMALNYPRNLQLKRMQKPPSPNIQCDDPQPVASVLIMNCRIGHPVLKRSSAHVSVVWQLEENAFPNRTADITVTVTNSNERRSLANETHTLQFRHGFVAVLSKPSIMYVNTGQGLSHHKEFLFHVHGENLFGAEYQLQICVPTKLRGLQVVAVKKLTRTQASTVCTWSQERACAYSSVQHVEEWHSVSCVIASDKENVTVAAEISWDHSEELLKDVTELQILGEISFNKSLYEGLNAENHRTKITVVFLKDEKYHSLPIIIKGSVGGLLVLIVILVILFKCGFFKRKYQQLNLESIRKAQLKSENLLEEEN
T1 sequence (P26010 20-798, chain 2 of 2): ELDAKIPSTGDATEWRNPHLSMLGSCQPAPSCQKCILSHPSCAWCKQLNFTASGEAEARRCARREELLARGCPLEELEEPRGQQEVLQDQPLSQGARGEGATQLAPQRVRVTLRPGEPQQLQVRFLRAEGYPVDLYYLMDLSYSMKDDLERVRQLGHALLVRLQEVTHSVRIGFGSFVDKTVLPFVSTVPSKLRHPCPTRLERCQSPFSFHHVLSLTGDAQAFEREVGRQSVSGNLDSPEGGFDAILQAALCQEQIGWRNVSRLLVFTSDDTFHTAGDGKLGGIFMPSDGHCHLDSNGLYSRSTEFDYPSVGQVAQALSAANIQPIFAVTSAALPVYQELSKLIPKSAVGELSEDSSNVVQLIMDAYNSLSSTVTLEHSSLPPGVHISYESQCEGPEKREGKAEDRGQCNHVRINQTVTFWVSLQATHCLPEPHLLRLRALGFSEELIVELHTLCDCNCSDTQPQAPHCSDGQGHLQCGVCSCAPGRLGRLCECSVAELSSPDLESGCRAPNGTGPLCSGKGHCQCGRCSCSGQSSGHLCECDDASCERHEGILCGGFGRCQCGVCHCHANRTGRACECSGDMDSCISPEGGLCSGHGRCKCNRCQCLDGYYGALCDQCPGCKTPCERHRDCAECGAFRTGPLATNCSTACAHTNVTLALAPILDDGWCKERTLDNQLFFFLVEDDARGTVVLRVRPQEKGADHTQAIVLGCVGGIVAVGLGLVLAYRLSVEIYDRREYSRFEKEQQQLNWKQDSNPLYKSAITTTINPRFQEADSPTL
Experiment: cell adhesion inhibition, alphaEbeta7 293 cells on coated huE-Cadherin, experiment 1 of 3
Method: After blocking the plates with 200 ul/well of 5 mg/ml BSA for one hour at room temperature, 50 μl of humanized Fib504 variants in assay media (RPMI 1640 media, Hyclone®, Logan Utah, USA, supplemented with 5 mg/mL BSA) were added to each well and 150,000 BCECF-labeled cells (BCECF, Molecular Probes, Eugene, Oreg.) in 50 μl of assay media were added to each well and incubated for 15 minutes at 37° C. The wells were washed two times with 150 μl of assay media to remove unbound cells. […]
Notebook: values listed as pIC50 are -log10 of the concentration (mol/L).

Quick check: pIC50 of Variant hu504.16, IgG (antibody, name in Kabat numbering, V domains shown) VH: EVQLVESGGGLVQPGGSLRLSCAASGFFITNNYWGWVRQAPGKGLEWVGYISYSGSTSYNPSLKSRFTISRDTSKNTFYLQMNSLRAEDTAVYYCAMTGSSGYFDFWGQGTLVTVSS VL: DIQMTQSPSSLSASVGDRVTITCRASESVDTLLHWYQQKPGKAPKLLIKYASQSISGVPSRFSGSGSGTDFTLTISSLQPEDFATYYCQQGNSLPNTFGQGTKVEIKR ? 8.71

# lookup: pIC50 of Variant hu504.32, IgG (antibody, V domains shown, methionine at heavy chain position 94; also called hu504.32M; 504.32M) VH: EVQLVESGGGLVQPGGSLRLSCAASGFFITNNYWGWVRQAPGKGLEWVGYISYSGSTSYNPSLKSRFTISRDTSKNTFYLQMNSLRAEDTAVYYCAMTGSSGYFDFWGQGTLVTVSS VL: DIQMTQSPSSLSASVGDRVTITCRASESVDDLLHWYQQKPGKAPKLLIKYASQSISGVPSRFSGSGSGTDFTLTISSLQPEDFATYYCQQGNSLPNTFGQGTKVEIKR 8.74

Given the entry Variant hu504.5, IgG (antibody, name in Kabat numbering, V domains shown) VH: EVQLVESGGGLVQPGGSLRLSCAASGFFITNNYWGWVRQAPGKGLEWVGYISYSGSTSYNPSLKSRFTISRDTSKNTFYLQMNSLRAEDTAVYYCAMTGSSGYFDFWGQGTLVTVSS VL: DIQMTQSPSSLSASVGDRVTITCRASESVDSLLHWYQQKPGKAPKLLIKYASQSISGVPSRFSGSGSGTDFTLTISSLQPEDFATYYCQQGNSLPNTFGQGTKVEIKR , report its measured pIC50. 8.67

Name the recorded pIC50 for Rat Fib504 (antibody FIB504.64 produced by hybridoma ATCC HB-293) (antibody, V domains shown, Whole rat antibody in the cell adhesion assays; also called rat anti-mouse beta7 antibody) VH: EVQLQESGPGLVKPSQSLSLTCSVTGFFITNNYWGWIRKFPGNKMEWMGYISYSGSTSYNPSLKSRISITRDTSKNQFFLQLNSVTTEDTATYYCAMTGSSGYFDFWGPGTMVTVSS VL: DVVMTQSPATLSVTPGERISLSCRASESVDTYLHWYQQKPNESPRLLIKYASQSISGIPSRFSGSGSGTDFTLSINGVELEDLSIYYCQQGNSLPNTFGAGTKLELKR . 8.69

meta.source: patent US20090226437A1
